Reported solubility in G1/S (log2) is given for each of the following sequences.
test system: HeLa Kyoto; assay: solubility in G1/S (NP-40 vs SDS abundance) (log2 ratio); higher = more soluble; conditions: cell cycle stage: G1/S

INSERT INTO measurements (record_sequence, test_value) VALUES
  ('MGVTCVSQMPVAEGKSVQQTVELLTRKLEMLGAEKQGTFCVDCETYHTAASTLGSQGQTGKLMYVMHNSEYPLSCFALFENGPCLIADTNFDVLMVKLKGFFQSAKASKIETRGTRYQYCDFLVKVGTVTMGPSARGISVEVEYGPCVVASDCWSLLLEFLQSFLGSHTPGAPAVFGNRHDAVYGPADTMVQYMELFNKIRKQQQVPVAGIR [MED20]', 0.339);

# context switch: different sequence, same solubility in G1/S (log2)
Quick check: solubility in G1/S (log2) on HeLa Kyoto, item MAAAVAAAGAGEPQSPDELLPKGDAEKPEEELEEDDDEELDETLSERLWGLTEMFPERVRSAAGATFDLSLFVAQKMYRFSRAALWIGTTSFMILVLPVVFETEKLQMEQQQQLQQRQILLGPNTGLSGGMPGALPSLPGKI [TOMM22] ?
-0.782

* * *

test system: HeLa Kyoto; assay: melting temperature (median over replicates), in situ; higher = more thermally stable; conditions: cell cycle stage: mitosis
Reported melting temperature by item:
Just the number in °C, nothing appended.

Past entries and their recorded results:
INSERT INTO results (record_sequence, property_name, test_value) VALUES
  ('MDLSELERDNTGRCRLSSPVPAVCRKEPCVLGVDEAGRGPVLGPMVYAICYCPLPRLADLEALKVADSKTLLESERERLFAKMEDTDFVGWALDVLSPNLISTSMLGRVKYNLNSLSHDTATGLIQYALDQGVNVTQVFVDTVGMPETYQARLQQSFPGIEVTVKAKADALYPVVSAASICAKVARDQAVKKWQFVEKLQDLDTDYGSGYPNDPKTKAWLKEHVEPVFGFPQFVRFSWRTAQTILEKEAEDVIWEDSASENQEGLRKITSYFLNEGSQARPRSSHRYFLERGLESATSL [RNASEH2A]', 'melting temperature', 50.5),
  ('MELGSCLEGGREAAEEEGEPEVKKRRLLCVEFASVASCDAAVAQCFLAENDWEMERALNSYFEPPVEESALERRPETISEPKTYVDLTNEETTDSTTSKISPSEDTQQENGSMFSLITWNIDGLDLNNLSERARGVCSYLALYSPDVIFLQEVIPPYYSYLKKRSSNYEIITGHEEGYFTAIMLKKSRVKLKSQEIIPFPSTKMMRNLLCVHVNVSGNELCLMTSHLESTRGHAAERMNQLKMVLKKMQEAPESATVIFAGDTNLRDREVTRCGGLPNNIVDVWEFLGKPKHCQYTWDTQMNSNLGITAACKLRFDRIFFRAAAEEGHIIPRSLDLLGLEKLDCGRFPSDHWGLLCNLDIIL [TDP2]', 'melting temperature', 51.7),
  ('MAEEMESSLEASFSSSGAVSGASGFLPPARSRIFKIIVIGDSNVGKTCLTYRFCAGRFPDRTEATIGVDFRERAVEIDGERIKIQLWDTAGQERFRKSMVQHYYRNVHAVVFVYDMTNMASFHSLPSWIEECKQHLLANDIPRILVGNKCDLRSAIQVPTDLAQKFADTHSMPLFETSAKNPNDNDHVEAIFMTLAHKLKSHKPLMLSQPPDNGIILKPEPKPAMTCWC [RAB33B]', 'melting temperature', 55);

Please look up its melting temperature: MKKEHVLHCQFSAWYPFFRGVTIKSVILPLPQNVKDYLLDDGTLVVSGRDDPPTHSQPDSDDEAEEIQWSDDENTATLTAPEFPEFATKVQEAINSLGGSVFPKLNWSAPRDAYWIAMNSSLKCKTLSDIFLLFKSSDFITRDFTQPFIHCTDDSPDPCIEYELVLRKWCELIPGAEFRCFVKENKLIGISQRDYTQYYDHISKQKEEIRRCIQDFFKKHIQYKFLDEDFVFDIYRDSRGKVWLIDFNPFGEVTDSLLFTWEELISENNLNGDFSEVDAQEQDSPAFRCTNSEVTVQPSPYLSYRLPKDFVDLSTGEDAHKLIDFLKLKRNQQEDD [CDC123]
50.8

Endpoint output: melting temperature of MLRSVWNFLKRHKKKCIFLGTVLGGVYILGKYGQKKIREIQEREAAEYIAQARRQYHFESNQRTCNMTVLSMLPTLREALMQQLNSESLTALLKNRPSNKLEIWEDLKIISFTRSTVAVYSTCMLVVLLRVQLNIIGGYIYLDNAAVGKNGTTILAPPDVQQQYLSSIQHLLGDGLTELITVIKQAVQKVLGSVSLKHSLSLLDLEQKLKEIRNLVEQHKSSSWINKDGSKPLLCHYMMPDEETPLAVQACGLSPRDITTIKLLNETRDMLESPDFSTVLNTCLNRGFSRLLDNMAEFFRPTEQDLQHGNSMNSLSSVSLPLAKIIPIVNGQIHSVCSETPSHFVQDLLTMEQVKDFAANVYEAFSTPQQLEK [PEX3] . Value?
49

From: the supplement of paper PMC5998384
